The measured values listed here are drawn from paper PMC6499816.

assayedSystem: -L1 (recombinant, BLI) (human), Q9H0R8
Sequence (Q9H0R8 whole entry): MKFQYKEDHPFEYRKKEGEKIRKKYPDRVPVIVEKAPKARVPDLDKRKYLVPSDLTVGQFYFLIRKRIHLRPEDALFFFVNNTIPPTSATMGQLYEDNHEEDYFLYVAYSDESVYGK
assaySummary: BLI
experimentalSetup: modification not given
experimentalEndpoint: Kd

Challenge: Returns the measured Kd for the input binder. Input: NISQKSDEEDFDKVEDLPLKLTIY [PCM1 V1956D LIR peptide]
Response given: 5.2 µM

Challenge: Quick one: Kd of NISQKSDEEDFVKIEDLPLKLTIY [PCM1 V1958I LIR peptide] ?
Response given: 1.1 µM
